Tested on: L3.6pl
Assay: Growth inhibitory activity on human pancreatic cancer cell lines (Example 2, WST-8)
Format: cell-based
Settings: Homo sapiens, L3.6pl, 72 h, cultured for 72 hours, 2000 cells/well
pIC50: −log10 of the molar value.
This listing pairs compounds with measured pIC50.
assay.endpoint: pIC50

compound="COc1ccc2c(c1CC1CCNCC1F)O/C(=C\\c1n[nH]c3ncccc13)C2=O (stereo not shown)" endpoint_value=6.60
compound=COc1ccc2c(c1CN1CCNC[C@H]1C)O/C(=C\c1n[nH]c3ncccc13)C2=O endpoint_value=5.46
compound=COc1ccc2c(c1CN1C[C@@H](C)N[C@@H](C)C1)O/C(=C\c1n[nH]c3ncccc13)C2=O endpoint_value=5.12
compound=COc1ccc2c(c1CN1CCN[C@@H](C)C1)O/C(=C\c1n[nH]c3ncccc13)C2=O endpoint_value=5.46
compound=COc1ccc2c(c1CN1CCNC[C@@H]1C)O/C(=C\c1n[nH]c3ncccc13)C2=O endpoint_value=5.40
compound=COc1ccc2c(c1CN1CCN[C@H](C)C1)O/C(=C\c1n[nH]c3ncccc13)C2=O endpoint_value=5.46
compound=COc1ccc2c(c1CN1[C@H](C)CNC[C@@H]1C)O/C(=C\c1n[nH]c3ncccc13)C2=O endpoint_value=5.46

* * *

This listing pairs compounds with measured IC50.
Target: PIM-3 kinase (Homo sapiens, UniProt Q86V86)
Experiment: Measurement of PIM-3 kinase inhibitory activity (fluorescent substrate peptide, capillary electrophoresis)
Type: biochemical
Details: 30 μM ATP, 2 hours at room temperature
Protocol: 1.5 μM of fluorescent substrate peptide (FAM-AKRRRLSSLRA-COOH), 30 μM of ATP, and 0.0833 ng/μL of PIM-3 kinase were incubated with a compound for 2 hours at room temperature, and the Pim-3 kinase activity was measured. The reaction was quantified by separating the substrate and phosphorylation reaction product by capillary electrophoresis (using a Perkin-Elmer EZ reader II) based on the difference in their charges. The results are shown below in Tables 1 and 2.
assay.endpoint: IC50 (nM)

compound="COc1ccc2c(c1CN1CC[C@@H](N)C1)O/C(=C\\c1n[nH]c3ncccc13)C2=O [Compound 15]" units=nM endpoint_value=1.6
compound="O=C1/C(=C/c2n[nH]c3ncccc23)Oc2c1ccc(Cl)c2CC1CCNCC1 [Compound 28]" units=nM endpoint_value=1.3
compound="COc1ccc2c(c1CC1CCNCC1F)O/C(=C\\c1n[nH]c3ncccc13)C2=O (stereo not shown) [Compound 18]" units=nM endpoint_value=0.35
compound="COc1ccc2c(c1CN1CCNC[C@H]1C)O/C(=C\\c1n[nH]c3ncccc13)C2=O [Compound 8]" units=nM endpoint_value=38
compound="CN[C@H]1CCN(Cc2c(OC)ccc3c2O/C(=C\\c2n[nH]c4ncccc24)C3=O)C1 [Compound 26]" units=nM endpoint_value=1.1
compound="COc1ccc2c(c1CN1CC[C@H](N)C1)O/C(=C\\c1n[nH]c3ncccc13)C2=O [Compound 14]" units=nM endpoint_value=1
compound="COc1ccc2c(c1CN1CCC[C@@H]1CN)O/C(=C\\c1n[nH]c3ncccc13)C2=O [Compound 31]" units=nM endpoint_value=0.96
compound="O=C1/C(=C/c2n[nH]c3ncccc23)Oc2c1ccc(F)c2CC1CCNCC1 [Compound 29]" units=nM endpoint_value=4.5
compound="COc1ccc2c(c1C(C)N1CCNCC1)O/C(=C\\c1n[nH]c3ncccc13)C2=O (stereo not shown) [Compound 6]" units=nM endpoint_value=7.6
compound="COc1ccc2c(c1CN1CCC[C@H](N)C1)O/C(=C\\c1n[nH]c3ncccc13)C2=O [Compound 32]" units=nM endpoint_value=0.51
